Where these numbers come from: paper PMC8085067

# target.of.assay: SARS-CoV-2 M^pro (Severe acute respiratory syndrome coronavirus 2, UniProt P0DTD1)
pIC50: −log10 of the molar value.
experimental.readout: pIC50

mol.smiles	target.of.assay	experimental.readout	value.measured
CCNC(=O)c1noc(-c2c(F)c(F)c(NCCN(CCNc3c(F)c(F)c(-c4nc(C(=O)NCC)no4)c(F)c3F)CCNc3c(F)c(F)c(-c4nc(C(=O)NCC)no4)c(F)c3F)c(F)c2F)n1	SARS-CoV-2 M^pro (Severe acute respiratory syndrome coronavirus 2, UniProt P0DTD1)	pIC50	4.82
